target: JAK2 (a.a. 828-1132) (Homo sapiens, UniProt O60674); construct: JAK2 (a.a. 828-1132); His tag (N); experiment: In vitro JAK kinase assay (HTRF, phosphorylation of biotinylated peptide), JAK2; assay type: biochemical; details: Table F; 1 mM ATP
Sequence (O60674 828-1132): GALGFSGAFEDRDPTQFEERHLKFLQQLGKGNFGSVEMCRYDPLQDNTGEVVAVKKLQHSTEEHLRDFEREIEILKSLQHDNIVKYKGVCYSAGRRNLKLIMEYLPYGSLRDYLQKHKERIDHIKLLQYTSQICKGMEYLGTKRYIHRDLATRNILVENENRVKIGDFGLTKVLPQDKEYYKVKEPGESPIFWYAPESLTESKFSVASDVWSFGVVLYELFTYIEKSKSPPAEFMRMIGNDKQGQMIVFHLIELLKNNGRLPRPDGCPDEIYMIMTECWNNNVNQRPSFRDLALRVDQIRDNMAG

{"columns": ["compound", "targetOfAssay", "IC50"],
 "data": [
  ["CC(C)(O)c1cc(OC2CCN([C@H]3C[C@@](CC#N)(n4cc(-c5ncnc6[nH]ccc56)cn4)C3)CC2)nc(C(F)(F)F)c1 (single isomer, unassigned)", "JAK2 (a.a. 828-1132) (Homo sapiens, UniProt O60674)", "> 100 nM"],
  ["CC(C)(C)NCc1cc(C(=O)N2CCN([C@H]3C[C@](CC#N)(n4cc(-c5ncnc6[nH]ccc56)cn4)C3)CC2)nc(C(F)(F)F)n1", "JAK2 (a.a. 828-1132) (Homo sapiens, UniProt O60674)", "10 to 25 nM"],
  ["N#CC[C@]1(n2cc(-c3ncnc4[nH]ccc34)cn2)C[C@H](N2CCN(C(=O)N[C@H]3CCC[C@@H]3O)CC2)C1 (racemic)", "JAK2 (a.a. 828-1132) (Homo sapiens, UniProt O60674)", "25 to 100 nM"],
  ["CC[C@H](C)NC(=O)N1CCN([C@H]2C[C@](CC#N)(n3cc(-c4ncnc5[nH]ccc45)cn3)C2)CC1", "JAK2 (a.a. 828-1132) (Homo sapiens, UniProt O60674)", "25 to 100 nM"],
  ["N#CC[C@]1(n2cc(-c3ncnc4[nH]ccc34)cn2)C[C@H](N2CCN(C(=O)N[C@H]3CC[C@H](O)CC3)CC2)C1", "JAK2 (a.a. 828-1132) (Homo sapiens, UniProt O60674)", "25 to 100 nM"],
  ["C[C@H](NC(=O)N1CCN([C@H]2C[C@](CC#N)(n3cc(-c4ncnc5[nH]ccc45)cn3)C2)CC1)C1CC1", "JAK2 (a.a. 828-1132) (Homo sapiens, UniProt O60674)", "25 to 100 nM"],
  ["CC(C)OC(=O)N1CCN([C@H]2C[C@](CC#N)(n3cc(-c4ncnc5[nH]ccc45)cn3)C2)CC1", "JAK2 (a.a. 828-1132) (Homo sapiens, UniProt O60674)", "25 to 100 nM"],
  ["N#CC[C@]1(n2cc(-c3ncnc4[nH]ccc34)cn2)C[C@H](N2CCN(C(=O)c3cc(CNC4CCC4)nc(C(F)(F)F)n3)CC2)C1", "JAK2 (a.a. 828-1132) (Homo sapiens, UniProt O60674)", "25 to 100 nM"],
  ["N#CC[C@]1(n2cc(-c3ncnc4[nH]ccc34)cn2)C[C@H](N2CCN(C(=O)c3cc(CO)cc(C(F)(F)F)n3)CC2)C1", "JAK2 (a.a. 828-1132) (Homo sapiens, UniProt O60674)", "25 to 100 nM"],
  ["CN(C)Cc1cc(Cl)nc(OC2CCN([C@H]3C[C@](CC#N)(n4cc(-c5ncnc6[nH]ccc56)cn4)C3)CC2)c1", "JAK2 (a.a. 828-1132) (Homo sapiens, UniProt O60674)", "< 10 nM"],
  ["COCc1cc(OC2CCN([C@H]3C[C@](CC#N)(n4cc(-c5ncnc6[nH]ccc56)cn4)C3)CC2)nc(C(F)(F)F)c1 (single isomer, unassigned)", "JAK2 (a.a. 828-1132) (Homo sapiens, UniProt O60674)", "> 100 nM"],
  ["CN(C)Cc1cc(C(=O)N2CCN([C@H]3C[C@](CC#N)(n4cc(-c5ncnc6[nH]ccc56)cn4)C3)CC2)cc(C(F)F)c1", "JAK2 (a.a. 828-1132) (Homo sapiens, UniProt O60674)", "10 to 25 nM"],
  ["N#CC[C@]1(n2cc(-c3ncnc4[nH]ccc34)cn2)C[C@H](N2CCC(Oc3cc(CN)nc(C(F)(F)F)n3)CC2)C1", "JAK2 (a.a. 828-1132) (Homo sapiens, UniProt O60674)", "25 to 100 nM"],
  ["CC(C)NC(=O)N1CCN([C@H]2C[C@](CC#N)(n3cc(-c4ncnc5[nH]ccc45)cn3)C2)CC1", "JAK2 (a.a. 828-1132) (Homo sapiens, UniProt O60674)", "25 to 100 nM"],
  ["N#CC[C@]1(n2cc(-c3ncnc4[nH]ccc34)cn2)C[C@H](N2CCC(Oc3cc(CN4CCOCC4)cc(C(F)(F)F)n3)CC2)C1", "JAK2 (a.a. 828-1132) (Homo sapiens, UniProt O60674)", "25 to 100 nM"],
  ["CN(C)Cc1cc(CN2CCN([C@H]3C[C@@](CC#N)(n4cc(-c5ncnc6[nH]ccc56)cn4)C3)CC2)cc(C(F)(F)F)c1", "JAK2 (a.a. 828-1132) (Homo sapiens, UniProt O60674)", "> 100 nM"],
  ["N#CC[C@]1(n2cc(-c3ncnc4[nH]ccc34)cn2)C[C@H](N2CCN(C(=O)c3cc(CN4CCC4)nc(C(F)(F)F)n3)CC2)C1", "JAK2 (a.a. 828-1132) (Homo sapiens, UniProt O60674)", "25 to 100 nM"],
  ["Cc1cc(OC2CCN([C@H]3C[C@](CC#N)(n4cc(-c5ncnc6[nH]ccc56)cn4)C3)CC2)nc(C(F)(F)F)n1", "JAK2 (a.a. 828-1132) (Homo sapiens, UniProt O60674)", "> 100 nM"],
  ["CC(C)(O)c1cc(C(=O)N2CCN([C@H]3C[C@](CC#N)(n4cc(-c5ncnc6[nH]ccc56)cn4)C3)CC2)nc(C(F)(F)F)c1", "JAK2 (a.a. 828-1132) (Homo sapiens, UniProt O60674)", "10 to 25 nM"],
  ["N#CC[C@]1(n2cc(-c3ncnc4[nH]ccc34)cn2)C[C@H](N2CCC(Oc3cc(CN4CCC4)cc(C(F)(F)F)n3)CC2)C1", "JAK2 (a.a. 828-1132) (Homo sapiens, UniProt O60674)", "25 to 100 nM"],
  ["CN(C)Cc1cc(C(=O)N2CCN([C@H]3C[C@@](CC#N)(n4cc(-c5ncnc6[nH]ccc56)cn4)C3)CC2)cc(C(F)(F)F)c1", "JAK2 (a.a. 828-1132) (Homo sapiens, UniProt O60674)", "> 100 nM"],
  ["N#CC[C@]1(n2cc(-c3ncnc4[nH]ccc34)cn2)C[C@H](N2CCN(C(=O)c3cc(C4=NCCN4)cc(C(F)(F)F)n3)CC2)C1", "JAK2 (a.a. 828-1132) (Homo sapiens, UniProt O60674)", "10 to 25 nM"],
  ["N#CC[C@]1(n2cc(-c3ncnc4[nH]ccc34)cn2)C[C@H](N2CCN(C(=O)N3CCC[C@@H]3C(F)(F)F)CC2)C1", "JAK2 (a.a. 828-1132) (Homo sapiens, UniProt O60674)", "> 100 nM"],
  ["COC(C)(C)c1cc(C(=O)N2CCN([C@H]3C[C@](CC#N)(n4cc(-c5ncnc6[nH]ccc56)cn4)C3)CC2)nc(C(F)(F)F)n1", "JAK2 (a.a. 828-1132) (Homo sapiens, UniProt O60674)", "25 to 100 nM"],
  ["N#CC[C@]1(n2cc(-c3ncnc4[nH]ccc34)cn2)C[C@H](N2CCN(C(=O)c3cc(C#N)cc(C(F)(F)F)n3)CC2)C1", "JAK2 (a.a. 828-1132) (Homo sapiens, UniProt O60674)", "25 to 100 nM"]
]}

---

Biological target: JAK2 (a.a. 828-1132) (Homo sapiens, UniProt O60674)
Construct: JAK2 (a.a. 828-1132); His tag (N)
Assay: In vitro JAK kinase assay (HTRF, phosphorylation of biotinylated peptide), JAK2
Type: biochemical
Details: Table A; 1 mM ATP; read-out: JAK2 IC50
Description: Compounds herein were tested for inhibitory activity of JAK targets according to the following in vitro assay described in Park et al., Analytical Biochemistry 1999, 269, 94-104. […] The phosphorylated peptide was detected by homogenous time resolved fluorescence (HTRF). […] Binding to the Europium labeled antibody took place for 40 minutes and HTRF signal was measured on a Fusion plate reader (Perkin Elmer, Boston, Mass.). […]
pIC50: −log10 of the molar value. Structures can show the parent of a compound that is named as a salt.
# reported pIC50; entries follow
resultType: pIC50

{"columns": ["molecule", "targetOfAssay", "resultType", "readoutValue"],
 "data": [
  ["N#CC[C@]1(n2cc(-c3ncnc4[nH]ccc34)cn2)C[C@@H](N2CCN(C(=O)c3cccc(C(F)(F)F)c3F)CC2)C1", "JAK2 (a.a. 828-1132) (Homo sapiens, UniProt O60674)", "pIC50", "7.00 to 7.60"],
  ["N#CC[C@]1(n2cc(-c3ncnc4[nH]ccc34)cn2)C[C@@H](N2CCN(Cc3cc(F)cc(C#N)c3)CC2)C1", "JAK2 (a.a. 828-1132) (Homo sapiens, UniProt O60674)", "pIC50", "< 7.00"],
  ["N#CC[C@]1(n2cc(-c3ncnc4[nH]ccc34)cn2)C[C@@H](N2CCN(C(=O)c3ccc(F)c(F)c3)CC2)C1 [Example 15a]", "JAK2 (a.a. 828-1132) (Homo sapiens, UniProt O60674)", "pIC50", "7.00 to 7.60"],
  ["N#CC[C@]1(n2cc(-c3ncnc4[nH]ccc34)cn2)C[C@@H](N2CCN(C(=O)c3ccnc(C(F)(F)F)c3F)CC2)C1", "JAK2 (a.a. 828-1132) (Homo sapiens, UniProt O60674)", "pIC50", "< 7.00"],
  ["N#CC[C@]1(n2cc(-c3ncnc4[nH]ccc34)cn2)C[C@@H](N2CCN(C(=O)c3ncc(C(F)(F)F)cc3F)CC2)C1", "JAK2 (a.a. 828-1132) (Homo sapiens, UniProt O60674)", "pIC50", "7.00 to 7.60"],
  ["CC(C)c1nccc(C(=O)N2CCN([C@H]3C[C@@](CC#N)(n4cc(-c5ncnc6[nH]ccc56)cn4)C3)CC2)n1 [Example 24a]", "JAK2 (a.a. 828-1132) (Homo sapiens, UniProt O60674)", "pIC50", "< 7.00"],
  ["N#CC[C@]1(n2cc(-c3ncnc4[nH]ccc34)cn2)C[C@@H](N2CCN(C(=O)c3ccc(C(F)(F)F)cc3F)CC2)C1 [Example 29, (trifluoroacetate) Salt]", "JAK2 (a.a. 828-1132) (Homo sapiens, UniProt O60674)", "pIC50", "7.00 to 7.60"],
  ["N#CC[C@]1(n2cc(-c3ncnc4[nH]ccc34)cn2)C[C@@H](N2CCN(Cc3c(F)ccc(F)c3Cl)CC2)C1 [Example 16a]", "JAK2 (a.a. 828-1132) (Homo sapiens, UniProt O60674)", "pIC50", "7.60 to 8.00"],
  ["N#CC[C@]1(n2cc(-c3ncnc4[nH]ccc34)cn2)C[C@@H](N2CCN(C(=O)c3ccc(F)c(OC(F)(F)F)c3)CC2)C1", "JAK2 (a.a. 828-1132) (Homo sapiens, UniProt O60674)", "pIC50", "7.00 to 7.60"],
  ["N#CC[C@]1(n2cc(-c3ncnc4[nH]ccc34)cn2)C[C@@H](N2CCN(Cc3cncc(F)c3)CC2)C1 [Example 23a]", "JAK2 (a.a. 828-1132) (Homo sapiens, UniProt O60674)", "pIC50", "< 7.00"],
  ["N#CC[C@]1(n2cc(-c3ncnc4[nH]ccc34)cn2)C[C@@H](N2CCN(C(=O)c3nc(C(F)(F)F)cs3)CC2)C1 [Example 13a]", "JAK2 (a.a. 828-1132) (Homo sapiens, UniProt O60674)", "pIC50", "7.00 to 7.60"],
  ["N#CC[C@]1(n2cc(-c3ncnc4[nH]ccc34)cn2)C[C@@H](N2CCN(C(=O)c3cc(F)cc(F)c3)CC2)C1", "JAK2 (a.a. 828-1132) (Homo sapiens, UniProt O60674)", "pIC50", "7.00 to 7.60"]
]}
